# pIC50 per record follows
# System: A549
# assay: Antiproliferative activity against human A549 cells assessed as reduction in cell viability measured after 72 hrs by MTS assay
# Type: functional, cell-based
# experimental conditions: Homo sapiens, A549, 72 h; read-out: IC50
Reminder that pIC50 is minus the log10 of a molar concentration.

Some solved entries appear below for comparison.
# compound, pIC50
measured = [
    ("Fc1ccc(C2NN=C3CCCC32)cc1 (stereo unspecified)", 4.51),
    ("CS(=O)(=O)N1N=C2CCCC2C1c1ccc(F)cc1 (stereo unspecified)", 4.09),
    ("Clc1ccc(C2NN=C3CCCC32)cc1 (stereo unspecified)", 4.32),
    ("Cc1ccc(S(=O)(=O)N2N=C3CCCC3C2c2ccc(F)cc2)cc1 (stereo unspecified)", 5.24),
    ("COc1ccc(C2C3CCCC3=NN2S(C)(=O)=O)cc1 (stereo unspecified)", 4.72),
]

Record COc1ccc(C2NN=C3CCCC32)cc1 (stereo unspecified) has A549 pIC50 equal to 4.35

Numbers sourced from ChEMBL document CHEMBL4425172.
